Let's look at some IC50 data for Autotaxin (Homo sapiens) that I collected from the literature.

Field: example entries. Status: answers known.
>  <molecule>
COc1ccc(CN2C(=O)N(C)C(=O)C23CCN(C(=O)[C@H](NC(=O)c2cc(C(F)(F)F)ccc2F)C(C)C)CC3)c(F)c1

>  <measure-name>
IC50

>  <reported-value>
< 500 nM

$$$$
>  <molecule>
N#Cc1ccc(CN2CC3CCCCCC(=O)Nc4cc(Cl)ccc4-c4cc(n3n4)C2=O)cc1 (stereo not drawn)

>  <measure-name>
IC50

>  <reported-value>
< 10 nM

$$$$
>  <molecule>
CC1(Nc2ccc(S(C)(=O)=O)cc2)CCN(C(=O)[C@H](NC(=O)c2cc(OC(F)(F)F)ccc2F)C2CC2)CC1

>  <measure-name>
IC50

>  <reported-value>
100 to 500 nM

$$$$
>  <molecule>
CCCCC1CN(Cc2ccc(C#N)cc2)C(=O)c2cc(-c3ccc(OC(F)(F)F)cc3CC#N)nn21 (stereo not drawn)

>  <measure-name>
IC50

>  <reported-value>
100 to 1000 nM

$$$$
>  <molecule>
Cc1cc(CNc2ncc(C(=O)N3CCC3C)cn2)cc(OC(F)(F)F)c1 (stereo not drawn)

>  <measure-name>
IC50

>  <reported-value>
100 to 1000 nM

$$$$
>  <molecule>
CC(C)(CN1C(=O)[C@@H]2Cc3c(n(Cc4ccc(F)cc4)c4ccccc34)CN2C1=O)C(=O)O

>  <measure-name>
IC50

>  <reported-value>
< 500 nM

$$$$

Measured IC50 (Autotaxin (Homo sapiens)), entry `O=C(c1cnc(OC2CCOCC2)c(C2CC2)c1)N1C[C@@H]2CN(C(=O)[C@@H]3CCc4[nH]nnc4C3)C[C@H]2C1` : 20 nM

IC50 value, target or system Autotaxin (Homo sapiens), for CCc1nc2sc(N3CCC(N(C)S(=O)(=O)C4CC4)C3)nn2c1N(C)c1nc(-c2ccc(F)cc2)c(C#N)s1 (stereo not drawn) : 100 to 500 nM

The observed IC50 for `Cc1c(Sc2cccc(C(=O)O)c2)c2ccc(Cl)c(F)c2n1CC(=O)N1CCc2ccncc21` when tested with Autotaxin (Homo sapiens) stands at ≤ 500 nM
